Assay: Clearance in rat liver microsomes
Type: ADME, Microsome
Starred links: 1 amine or outer side, 2 acyl side, 3 side chain; linkers in the order of their positions; H or OH if unused. Non-standard residues stand in square brackets, D forms with d. Residues, ends and D or L forms follow the SMILES beside them. *: point of attachment. X3 = C[C@H](CO[C@H](CC1CC2(CCC2)C1)[C@@H](C)C(=O)[*:2])N[*:1]; X1 = CCCCCC[C@@H](OC[C@@H](C)N[*:1])[C@@H](C)C(=O)[*:2]; Cyclobutyl(trans-3-NH2) = N[C@H]1C[C@H](*)C1; Gly(cHept) = N[C@H](C(=O)O)C1CCCCCC1; NMeNva = CCC[C@H](NC)C(=O)O; X2 = NC[C@H]1C[C@H](*)C1; Dap = NC[C@H](N)C(=O)O
Readout Name: CLhep predicted (mL/min/kg)
The answer is to be given in mL/min/kg; state only the numeric part.

CCCCCC[C@H]1OC[C@@H](C)NC(=O)[C@H](CO[C@H]2C[C@H](CN)C2)NC(=O)[C@H](CN)NC(=O)[C@H](C2CCCCCC2)NC(=O)[C@H](CCC)N(C)C(=O)[C@@H]1C (cyclo([Dap]S(X2)[X1][NMeNva][Gly(cHept)]))    20

Let us examine a further case.
Lookup: State, in one line, measured CLhep predicted of CCC[C@H]1C(=O)N[C@@H](C2CCCCCC2)C(=O)N[C@@H](CN)C(=O)N[C@@H](CO[C@H]2C[C@H](N)C2)C(=O)N[C@H](C)CO[C@H](CC2CC3(CCC3)C2)[C@@H](C)C(=O)N1C (cyclo([Dap]S(Cyclobutyl(trans-3-NH2))[X3][NMeNva][Gly(cHept)]))
Found: 28

###

Test: Lipophilicity, logD of the compound at pH 7.4
Conditions: buffer, pH 7.4, logD
Starred links: 1 amine or outer side, 2 acyl side, 3 side chain; linkers in the order of their positions; H or OH if unused. Non-standard residues stand in square brackets, D forms with d. Residues, ends and D or L forms follow the SMILES beside them. *: point of attachment. X1 = CCCCCC[C@@H](OC[C@@H](C)N[*:1])[C@@H](C)C(=O)[*:2]; Gly(cHept) = N[C@H](C(=O)O)C1CCCCCC1; NMeNva = CCC[C@H](NC)C(=O)O; X14 = NCCN1CC[C@H](*)C1; Dap = NC[C@H](N)C(=O)O; X12 = NCC(CN)*
Readout Name: logD
Just the number, please, no unit attached.

CCCCCC[C@H]1OC[C@@H](C)NC(=O)[C@H](CO[C@H]2CCN(CCN)C2)NC(=O)[C@H](CN)NC(=O)[C@H](C2CCCCCC2)NC(=O)[C@H](CCC)N(C)C(=O)[C@@H]1C (cyclo([Dap]S(X14)[X1][NMeNva][Gly(cHept)]))    1.6

Let us examine a further case.
Lookup: State, in one line, measured logD of CCCCCC[C@H]1OC[C@@H](C)NC(=O)[C@H](COC(CN)CN)NC(=O)[C@H](CN)NC(=O)[C@H](C2CCCCCC2)NC(=O)[C@H](CCC)N(C)C(=O)[C@@H]1C (cyclo([Dap]S(X12)[X1][NMeNva][Gly(cHept)]))
Found: 1.1
